Please go through the items and note down their pIC50.
Test system: 8×TCF promoter-driven Firefly luciferase (Wnt reporter) in DLD-1 colorectal cells
Experimental Details: DLD-1-STF assay, constitutively activated Wnt pathway reporter
Type: cell-based
Condition Context: Homo sapiens; DLD-1 cells, 40 to 48 hours; read-out: DLD1-STF-FF/RL*100 IC50
Remember, pIC50 is on a log scale: it is -log10 of the molar concentration.

// recorded pIC50 for O=C(CCCc1nc2ccccc2c(=O)[nH]1)N[C@H]1CC[C@H](n2c(=O)[nH]c3cc(Cl)ccc32)CC1 [Example 74] : 8.80

// recorded pIC50 for N#Cc1ccc(O[C@H]2CC[C@H](NC(=O)CCCc3nc4ccccc4c(=O)[nH]3)CC2)cc1Cl [Example 64] : 8.90

---

System: Axin2 accumulation in SW480 cells
Experimental Details: Axin2 384 immunofluorescence assay
Type: cell-based
Condition Context: Homo sapiens; SW480 cells, 24 hours; read-out: Axin2 384 IF EC50
Quantity Name: log10(EC50) (log10 of the value in nM)
// units: nM (pre-log); metric: EC50; scale: log10

Noted log10(EC50) for O=C(CCCc1nc2ccccc2c(=O)[nH]1)N1CCC(c2nnc(-c3ccccc3Cl)o2)CC1 [Example 16] , tested on Axin2 accumulation in SW480 cells: 3.28

Noted log10(EC50) for O=C(CCCc1nc2ccccc2c(=O)[nH]1)N1CCC(n2c(=O)[nH]c3c(F)cccc32)CC1 [Example 67] , tested on Axin2 accumulation in SW480 cells: 2.74

Noted log10(EC50) for O=C(CC[S+]([O-])c1nc2ccccc2c(=O)[nH]1)N[C@H]1CC[C@H](c2nnc(-c3ccccc3)o2)CC1 (some centres unmarked) [Example 143] , tested on Axin2 accumulation in SW480 cells: 2.99

Noted log10(EC50) for O=c1[nH]c(CCNC(=O)[C@H]2CC[C@H](c3nnc(-c4ccccc4)o3)CC2)nc2ccccc12 [Example 1] , tested on Axin2 accumulation in SW480 cells: 3.14

Noted log10(EC50) for O=C(CCSCc1nc2ccccc2c(=O)[nH]1)N1CCC(c2nnc(-c3ccc(F)cc3)o2)CC1 [Example 93] , tested on Axin2 accumulation in SW480 cells: 3.09

Noted log10(EC50) for O=C(CCCc1nc2ccccc2c(=O)[nH]1)N1CCC(n2c(=O)[nH]c3cc(C(F)(F)F)ccc32)CC1 [Example 52, trifluoroacetic acid] , tested on Axin2 accumulation in SW480 cells: 1.98

Noted log10(EC50) for O=C(CCc1nc2ccccc2c(=O)[nH]1)N[C@H]1CC[C@H](c2nnc(-c3cnccn3)o2)CC1 [Example 142] , tested on Axin2 accumulation in SW480 cells: 3.81

Noted log10(EC50) for O=C(CCc1nc2ccccc2c(=O)[nH]1)N[C@H]1CC[C@H](c2nnc(-c3ccc(F)cc3)o2)CC1 [Example 127] , tested on Axin2 accumulation in SW480 cells: 2.49

Noted log10(EC50) for O=C(CCCc1nc2ccccc2c(=O)[nH]1)N1CCC(c2nnc(-c3cccnc3)o2)CC1 [Example 13] , tested on Axin2 accumulation in SW480 cells: 2.66

Noted log10(EC50) for O=C(CCSc1nc2ccccc2c(=O)[nH]1)N[C@H]1CC[C@H](Oc2ccccn2)CC1 [Example 107] , tested on Axin2 accumulation in SW480 cells: 1.22

Noted log10(EC50) for Nc1cc(=O)[nH]c(SCCC(=O)N[C@H]2CC[C@H](c3nnc(-c4ccccc4)o3)CC2)n1 [Example 91] , tested on Axin2 accumulation in SW480 cells: 3.01

Noted log10(EC50) for Cc1ccc2c(c1)[nH]c(=O)n2C1CCN(C(=O)CCCc2nc3ccccc3c(=O)[nH]2)CC1 [Example 11] , tested on Axin2 accumulation in SW480 cells: 2.39

Noted log10(EC50) for O=C(CCSc1nc2ccccc2c(=O)[nH]1)N[C@H]1CC[C@H](Oc2cccc(Cl)c2)CC1 [Example 112] , tested on Axin2 accumulation in SW480 cells: 2.02

Noted log10(EC50) for O=C(CCc1nc2ccc(F)cc2c(=O)[nH]1)N[C@H]1CC[C@H](c2nnc(-c3ccccc3)o2)CC1 [Example 101] , tested on Axin2 accumulation in SW480 cells: 2.89

Noted log10(EC50) for O=C(CCc1nc2ncccc2c(=O)[nH]1)N[C@H]1CC[C@H](c2nnc(-c3ccccc3)o2)CC1 [Example 81] , tested on Axin2 accumulation in SW480 cells: 3.94

Noted log10(EC50) for O=C(CCc1nc2ccccc2c(=O)[nH]1)N[C@H]1CC[C@H](n2c(=O)oc3ccccc32)CC1 [Example 80] , tested on Axin2 accumulation in SW480 cells: 2.35

Noted log10(EC50) for O=C(CCCSc1nc2ccccc2c(=O)[nH]1)N[C@H]1CC[C@H](c2nnc(-c3ccccc3)o2)CC1 [Example 110] , tested on Axin2 accumulation in SW480 cells: 2.12

Noted log10(EC50) for O=C(CCCc1nc2ccccc2c(=O)[nH]1)N[C@H]1CC[C@H](Oc2ccc(F)cc2)CC1 [Example 77] , tested on Axin2 accumulation in SW480 cells: 2.78

Noted log10(EC50) for O=C(CCSc1nc2ccccc2c(=O)[nH]1)N[C@H]1CC[C@H](c2nnc(-c3ccc(F)cc3)o2)CC1 [Example 117] , tested on Axin2 accumulation in SW480 cells: 0.44

Noted log10(EC50) for O=C(CCCc1nc2ccccc2c(=O)[nH]1)N1CCC(c2noc3ccc(F)cc23)CC1 [Example 72, trifluoroacetic acid] , tested on Axin2 accumulation in SW480 cells: 2.80

Noted log10(EC50) for N#Cc1ccc(-c2nnc(C3CCN(C(=O)CCCc4nc5ccccc5c(=O)[nH]4)CC3)o2)cc1 [Example 21] , tested on Axin2 accumulation in SW480 cells: 2.38

Noted log10(EC50) for N#Cc1cc(O[C@H]2CC[C@H](NC(=O)CCCc3nc4ccccc4c(=O)[nH]3)CC2)ccc1Cl [Example 63] , tested on Axin2 accumulation in SW480 cells: 2.43

Noted log10(EC50) for O=C(CCc1nc2ccccc2c(=O)[nH]1)N[C@H]1CC[C@H](c2nnc(-c3ccccn3)o2)CC1 [Example 131] , tested on Axin2 accumulation in SW480 cells: 4.08

Noted log10(EC50) for O=C(CCCSc1nc2ccccc2c(=O)[nH]1)N1CCC(c2nnc(-c3ccccc3)o2)CC1 [Example 111] , tested on Axin2 accumulation in SW480 cells: 3.47

Noted log10(EC50) for N#Cc1cccc2c1[nH]c(=O)n2C1CCN(C(=O)CCCc2nc3ccccc3c(=O)[nH]2)CC1 [Example 61] , tested on Axin2 accumulation in SW480 cells: 2.34

Noted log10(EC50) for O=C(CCCc1nc2ccccc2c(=O)[nH]1)N1CCN(c2noc3ccccc23)CC1 [Example 71, trifluoroacetic acid] , tested on Axin2 accumulation in SW480 cells: 3.62

Noted log10(EC50) for COc1ccc(-c2nnc([C@H]3CC[C@H](NC(=O)CCSc4nc5ccccc5c(=O)[nH]4)CC3)o2)cc1 [Example 121] , tested on Axin2 accumulation in SW480 cells: 0.30

Noted log10(EC50) for COc1cccc(-c2nnc([C@H]3CC[C@H](NC(=O)CCSc4nc5ccccc5c(=O)[nH]4)CC3)o2)c1 [Example 120] , tested on Axin2 accumulation in SW480 cells: 0.37

Noted log10(EC50) for O=C(CCCc1nc2ccccc2c(=O)[nH]1)N[C@H]1CC[C@H](Oc2cccc(Cl)c2)CC1 [Example 66] , tested on Axin2 accumulation in SW480 cells: 2.80
